Each recorded value in this set is attributed to paper PMC4336329.

Assignment: determine reported hERG current change (%, negative = inhibition) at 10uM for the given compounds.
# TARGET_UNDER_TEST: human ether-à-go-go-related gene (hERG) potassium channel (human);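 note: peak tail current of the secondary pulse compared with the same well before compound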
# Sequence (Q12809 whole entry, looked up): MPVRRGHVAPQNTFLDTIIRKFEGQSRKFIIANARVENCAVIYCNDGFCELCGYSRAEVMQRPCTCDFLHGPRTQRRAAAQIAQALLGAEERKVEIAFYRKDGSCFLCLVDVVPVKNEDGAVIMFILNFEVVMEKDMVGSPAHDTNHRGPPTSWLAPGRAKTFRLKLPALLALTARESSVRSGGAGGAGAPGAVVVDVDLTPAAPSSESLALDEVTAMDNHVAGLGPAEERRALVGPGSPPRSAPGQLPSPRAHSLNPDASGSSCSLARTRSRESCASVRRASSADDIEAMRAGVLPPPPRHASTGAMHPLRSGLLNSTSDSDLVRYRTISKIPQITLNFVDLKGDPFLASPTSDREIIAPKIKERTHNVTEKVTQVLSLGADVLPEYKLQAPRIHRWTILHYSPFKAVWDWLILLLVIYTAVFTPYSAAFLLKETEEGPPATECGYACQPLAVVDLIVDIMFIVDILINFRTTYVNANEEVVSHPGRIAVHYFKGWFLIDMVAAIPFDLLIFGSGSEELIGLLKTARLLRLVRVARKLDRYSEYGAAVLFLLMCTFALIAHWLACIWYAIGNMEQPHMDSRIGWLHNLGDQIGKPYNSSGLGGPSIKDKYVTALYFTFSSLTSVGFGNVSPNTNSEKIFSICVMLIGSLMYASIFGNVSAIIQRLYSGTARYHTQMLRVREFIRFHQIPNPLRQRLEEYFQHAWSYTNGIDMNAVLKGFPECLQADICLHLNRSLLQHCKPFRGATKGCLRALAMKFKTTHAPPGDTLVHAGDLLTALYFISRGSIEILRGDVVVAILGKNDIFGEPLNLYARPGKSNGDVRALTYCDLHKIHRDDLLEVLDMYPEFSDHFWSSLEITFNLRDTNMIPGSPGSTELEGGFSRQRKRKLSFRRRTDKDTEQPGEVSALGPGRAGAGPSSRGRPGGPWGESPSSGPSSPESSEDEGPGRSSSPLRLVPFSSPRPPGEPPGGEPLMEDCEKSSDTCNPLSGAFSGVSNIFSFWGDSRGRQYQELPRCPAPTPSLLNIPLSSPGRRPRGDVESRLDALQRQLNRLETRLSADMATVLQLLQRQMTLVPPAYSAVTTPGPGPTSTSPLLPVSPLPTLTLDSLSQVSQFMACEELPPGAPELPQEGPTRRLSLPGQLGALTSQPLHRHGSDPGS
# PROCEDURE_TEXT: primary screen, population patch clamp on CHO cells stably expressing hERG; higher = less effect of the substance
Among all 310,000 compounds or so, about 14,000 (4.5%) showed an effect of 50% or more. The effect is printed as a negative number. Shown is part of a subset that was picked to be rich in strong results.
Could you write the number and then its unit?

Input line: Look up and report measured hERG current change (%, negative = inhibition) at 10uM (human ether-à-go-go-related gene (hERG) potassium channel (human)) for the following compound: CCc1nnc(NC(=O)Cc2ccc(Br)cc2)s1
Output line: 12.4%

Input line: State measured hERG current change (%, negative = inhibition) at 10uM of the compound CN(C)c1ccc(NC(=O)Nc2csc3ccccc23)cc1 with human ether-à-go-go-related gene (hERG) potassium channel (human).
Output line: 18.4%

Input line: Specify the recorded hERG current change (%, negative = inhibition) at 10uM for CCCC1=[N+](CC(C)=O)CCn2c(C)ccc21.[Br-] , system: human ether-à-go-go-related gene (hERG) potassium channel (human).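 Note: peak tail current of the secondary pulse compared with the same well before compound.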
Output line: 20.1%

###

Task for the reader: assign each of the following compounds its reported hERG current change (%, negative = inhibition) at 10uM.
# TARGET_UNDER_TEST: human ether-à-go-go-related gene (hERG) potassium channel (human);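 note: peak tail current of the secondary pulse compared with the same well before compound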
# PROCEDURE_TEXT: primary screen, population patch clamp on CHO cells stably expressing hERG; higher = less effect of the substance
In all, about 310,000 compounds went through this assay and about 14,000 (4.5%) showed an effect of 50% or more. The effect is printed as a negative number. Shown is part of a subset that was picked to be rich in strong results.
Param answer (str): number followed by unit.

Input line: Retrieve hERG current change (%, negative = inhibition) at 10uM measured for Cc1cccc(OCC(=O)NCCCNC(=O)c2ccc(C)nc2)c1 and print it.
Output line: 17.9%

Input line: Give hERG current change (%, negative = inhibition) at 10uM for O=C(c1ccco1)N1CCN(C(=O)c2cc3ccccc3oc2=O)CC1
Output line: -13.2%

Input line: Identify measured hERG current change (%, negative = inhibition) at 10uM associated with O=C(O)CSc1nnc(-c2cccs2)n1-c1ccc(Cl)cc1
Output line: -6.94%

Input line: Give recorded hERG current change (%, negative = inhibition) at 10uM. c1ccc2[nH]c(CSc3ncnc4c3oc3ccccc34)nc2c1
Output line: -21.4%

Input line: Please supply the value of reported hERG current change (%, negative = inhibition) at 10uM for the item O=C(CN1CCN(CC(=O)Nc2ccccc2F)CC1)Nc1ccc2c(c1)OCCO2
Output line: -71.2%

Input line: Please supply the value of reported hERG current change (%, negative = inhibition) at 10uM for the item O=C(c1ccco1)N1CCN(C(=O)c2cc3cc([N+](=O)[O-])ccc3oc2=O)CC1
Output line: -52.4%

Input line: Return reported hERG current change (%, negative = inhibition) at 10uM. Input compound: COc1ccc(Br)cc1CN1CCCC(C(=O)N2CCCCCC2)C1.O=C(O)C(=O)O (stereo not shown)
Output line: -62.4%

Input line: Given the compound Cc1ccc(-c2csc3nc4ccc(C(=O)NCCO)cc4c(=O)n23)cc1 , write its reported hERG current change (%, negative = inhibition) at 10uM.
Output line: 12.1%

Input line: Answer with the recorded hERG current change (%, negative = inhibition) at 10uM for the compound listed here: Cc1ccc(OCCSc2nnc(-c3cccs3)n2C)cc1
Output line: -37%

Input line: Return hERG current change (%, negative = inhibition) at 10uM for the following compound: Cc1cc(C)c2sc(N(CCCN(C)C)C(=O)c3ccc(S(=O)(=O)N(C)Cc4ccccc4)cc3)nc2c1.Cl
Output line: -13.5%

Input line: State its hERG current change (%, negative = inhibition) at 10uM for this compound: Cn1c(SCCOc2ccc(Cl)cc2)nnc1-c1ccncc1
Output line: -56.3%

Input line: Provide only the value of recorded hERG current change (%, negative = inhibition) at 10uM for COc1ccc(Br)cc1CN1CCCC(C(=O)N2CCCCC2)C1.O=C(O)C(=O)O (stereo not shown)
Output line: -55.8%

Input line: Name the recorded hERG current change (%, negative = inhibition) at 10uM of the item O=C(CN1CCOCC1)Nc1ccccc1Cl in your answer.
Output line: -8.73%

Input line: Output measured hERG current change (%, negative = inhibition) at 10uM for this item: O=C(c1cc2cc([N+](=O)[O-])ccc2oc1=O)N1CCN(c2ncccn2)CC1
Output line: -0.285%

Input line: Supply hERG current change (%, negative = inhibition) at 10uM value. Item: CCCC(Oc1ccc(Br)cc1)c1nc2c3cc(OC)c(OC)cc3nc(=S)n2[nH]1 (stereo not shown)
Output line: 14.5%

Input line: Give me measured hERG current change (%, negative = inhibition) at 10uM, please, for this compound: CCN(Cc1ccccc1)S(=O)(=O)c1ccc(C(=O)N(CCCN(C)C)c2nc3cc(C)cc(C)c3s2)cc1.Cl
Output line: -4.15%

Input line: Kindly indicate its recorded hERG current change (%, negative = inhibition) at 10uM. Item: Cc1nc(N2CCN(Cc3nc4ccccc4[nH]3)CC2)c2oc3ccccc3c2n1
Output line: -52.1%

Input line: Give recorded hERG current change (%, negative = inhibition) at 10uM. O=C(C1CCCN(Cc2cc(Br)ccc2O)C1)N1CCCCC1.O=C(O)C(=O)O (stereo not shown)
Output line: -31.6%

Input line: Identify the reported hERG current change (%, negative = inhibition) at 10uM for the following entry. Cc1cc(C)c2sc(N(CCCN(C)C)C(=O)c3ccc(S(=O)(=O)N4CCCc5ccccc54)cc3)nc2c1.Cl
Output line: 0.702%

Input line: Answer with the recorded hERG current change (%, negative = inhibition) at 10uM for the compound listed here: CCN1CCN(C(=O)c2cc3cc([N+](=O)[O-])ccc3oc2=O)CC1
Output line: -14.4%

Input line: Provide only the value of recorded hERG current change (%, negative = inhibition) at 10uM for c1ccc2[nH]c(CN3CCN(c4ncnc5c4oc4ccccc45)CC3)nc2c1
Output line: -73.1%

Input line: Check the records and state hERG current change (%, negative = inhibition) at 10uM for O=C(CN1CCOCC1)Nc1ccc2c(c1)OCCO2.O=C(O)C(=O)O
Output line: 15%

###

# TARGET_UNDER_TEST: human ether-à-go-go-related gene (hERG) potassium channel (human);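 note: peak tail current of the secondary pulse compared with the same well before compound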
# PROCEDURE_TEXT: primary screen, population patch clamp on CHO cells stably expressing hERG; higher = less effect of the substance
Hit rate of the full screen: of about 310,000 compounds, about 14,000 (4.5%) showed an effect of 50% or more. The effect is printed as a negative number. Many of the other results were omitted from the sample, so strong results are more common in it than they were.
Exercise: for every item that follows, state its recorded hERG current change (%, negative = inhibition) at 10uM.
Give a bare numeral; the unit % is implied.

Input line: Give recorded hERG current change (%, negative = inhibition) at 10uM. CCOc1ccc(OCC)c(NC(=O)C2CCN(c3nn4c(=O)cc(C)nc4s3)CC2)c1
Output line: -30.5

Input line: Tell me measured hERG current change (%, negative = inhibition) at 10uM for Cc1c(C)n(-c2ccccc2)c2ncnc(NCCN(C)C)c12 please.
Output line: -4.04

Input line: In one line, give reported hERG current change (%, negative = inhibition) at 10uM of the entry CC(C)=CCc1c(O)ccc2c1OC(c1ccc(O)c(O)c1)CC2=O (stereo not drawn) .
Output line: 9.78

Input line: Specify measured hERG current change (%, negative = inhibition) at 10uM for COc1cc(Cl)c(C)cc1Nc1ncccn1 .
Output line: 4.73

Input line: Write down hERG current change (%, negative = inhibition) at 10uM measured for item CCOC(=O)N1CCC(NC(=O)C2CCCN(C(=O)N3CCOc4ccccc43)C2)CC1 (stereo not drawn)
Output line: 3.21

Input line: Quickly give me recorded hERG current change (%, negative = inhibition) at 10uM for Cc1sc2nc(-c3cccnc3)[nH]c(=O)c2c1-c1ccccc1
Output line: -4.06

Input line: Please report hERG current change (%, negative = inhibition) at 10uM for the following molecule: Cl.Clc1ccccc1CN1CCN(/N=C/c2ccncc2)CC1
Output line: -24.3

Input line: Specify reported hERG current change (%, negative = inhibition) at 10uM for the molecule shown: CCN(CC)C(=S)Sc1c(-c2ccccc2)c2cc(Cl)ccc2[nH]c1=O
Output line: 5.42

Input line: Return hERG current change (%, negative = inhibition) at 10uM (reported value) for this molecule: COc1cc(Br)cc(/C=C/c2ccc3cccc(O)c3n2)c1OC
Output line: 11.4

Input line: Let me know recorded hERG current change (%, negative = inhibition) at 10uM for Cc1cccc(NC(=S)Nc2ccc3cn[nH]c3c2)c1 , thanks.
Output line: 1.96

Input line: Answer with reported hERG current change (%, negative = inhibition) at 10uM of O=C(Nc1ccc(S(=O)(=O)N2CCOCC2)cc1)c1ccc(F)cc1
Output line: -6.51

Input line: Entry C=CCn1c(SCC(=O)Nc2cc(C)on2)nc2sc(C)c(C)c2c1=O needs its hERG current change (%, negative = inhibition) at 10uM filled in; supply it.
Output line: -0.759

Input line: Please indicate hERG current change (%, negative = inhibition) at 10uM recorded for CCN(CC)S(=O)(=O)c1ccc(S(=O)(=O)N(CC(=O)Nc2ccccc2)CC2CCCO2)cc1 (stereo not drawn)
Output line: -18.6

Input line: Give me measured hERG current change (%, negative = inhibition) at 10uM, please, for this molecule: Cc1ccc(Nc2ccccc2)nn1
Output line: 18.6

Input line: Given O=C(Nc1ccc(-c2nc3ccccc3o2)cc1)c1ccc(N2C(=O)C3C4C=CC(C4)C3C2=O)cc1 (stereo not drawn) , respond with its hERG current change (%, negative = inhibition) at 10uM.
Output line: 3.26

Input line: In one line, give reported hERG current change (%, negative = inhibition) at 10uM of the entry COc1ccccc1NS(=O)(=O)c1cc(C(=O)NCC2CCCO2)ccc1C (stereo not drawn) .
Output line: -36.8

Input line: Please give the documented hERG current change (%, negative = inhibition) at 10uM of Cc1cc(C)cc(N(CC(=O)NCc2cccnc2)S(C)(=O)=O)c1
Output line: -1.95

Input line: Using known records, supply hERG current change (%, negative = inhibition) at 10uM for Cl.O=C(c1ccc(Cl)c(S(=O)(=O)N2CCCC2)c1)N1CCN(c2ccc(F)cc2)CC1
Output line: -58.5

Input line: Look up and report measured hERG current change (%, negative = inhibition) at 10uM for this entry: O=C(c1ccc(OC2CCN(CCc3ccccc3)CC2)cc1)N1CCCC(CO)C1 (stereo not drawn)
Output line: -12.4

Input line: # return recorded hERG current change (%, negative = inhibition) at 10uM for input COC(=O)c1c(NC(=S)NN2CCOCC2)sc2c1CCCC2
Output line: 8.03

Input line: Specify measured hERG current change (%, negative = inhibition) at 10uM for CN(C)CCNc1ncnc2oc(-c3ccccc3)c(-c3ccccc3)c12 .
Output line: -60.7

Input line: Give me measured hERG current change (%, negative = inhibition) at 10uM, please, for this molecule: CCOC(=O)C1(CCOc2ccccc2)CCN(Cc2ccc(NC(C)=O)cc2)CC1
Output line: -79.3

Input line: Note down hERG current change (%, negative = inhibition) at 10uM recorded for CN(C)CCCNc1ncnc2sc(-c3ccccc3)cc12.O=C(O)C(=O)O
Output line: -60.2

Input line: Return hERG current change (%, negative = inhibition) at 10uM (reported value) for this molecule: COc1ccc(-c2oc3ncnc(NCCCN(C)C)c3c2-c2ccc(OC)cc2)cc1
Output line: -60.2

Input line: // fetch hERG current change (%, negative = inhibition) at 10uM given entry O=C(c1ccc(F)c(S(=O)(=O)N2CCOCC2)c1)N1CCN(c2ncccn2)CC1
Output line: -4.06

Input line: Respond only with hERG current change (%, negative = inhibition) at 10uM recorded for Cl.N=c1sccn1CC(=O)Nc1ccc(Cl)cc1[N+](=O)[O-]
Output line: -21

Input line: Note down hERG current change (%, negative = inhibition) at 10uM recorded for CC1CCN(S(=O)(=O)c2ccc(NC(=O)CCN3C(=O)C4CC=CCC4C3=O)cc2)CC1 (stereo not drawn)
Output line: -25.3

Input line: Determine its reported hERG current change (%, negative = inhibition) at 10uM: Cc1ccc(NC(=O)CS(=O)(=O)c2cn(CC(=O)N3CCOCC3)c3ccccc23)cc1
Output line: -0.0981

Input line: Answer with the recorded hERG current change (%, negative = inhibition) at 10uM of CCCc1cnc(NCCNCC(O)COc2ccc(Cl)c(Cl)c2)nc1 (stereo not drawn) only.
Output line: -71.2

Input line: Give the measured hERG current change (%, negative = inhibition) at 10uM for CC(C)C(C(=O)O)N1C(=O)/C(=C/c2cccn2C)SC1=S (stereo not drawn)
Output line: -0.129

Input line: In one line, give reported hERG current change (%, negative = inhibition) at 10uM of the entry CN(C)CCCNc1ncnc2oc(-c3ccccc3)c(-c3ccccc3)c12 .
Output line: -69.5

Input line: Report hERG current change (%, negative = inhibition) at 10uM for Nc1ccc2nc(-c3ccccc3)sc2c1
Output line: 23.4

Input line: Report measured hERG current change (%, negative = inhibition) at 10uM; entry is O=C(CS(=O)(=O)c1cn(CC(=O)N2CCOCC2)c2ccccc12)Nc1ccccc1
Output line: 8.09
